Target: T1, Recombinant human CD137 (R&D systems), biotinylated (human, UniProt Q07011 24-186, biotinylated with EZ-Link Sulfo-NHS-LC-LC-Biotin)
T1 construct: Bought protein; Captured on a streptavidin chip; also called human CD137 protein; 4-1BB
T1 sequence (Q07011 24-186 limits assumed): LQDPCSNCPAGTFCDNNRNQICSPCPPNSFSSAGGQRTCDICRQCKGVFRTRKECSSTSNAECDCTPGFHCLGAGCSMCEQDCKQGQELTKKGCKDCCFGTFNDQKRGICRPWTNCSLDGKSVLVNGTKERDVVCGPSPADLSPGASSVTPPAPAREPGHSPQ
Assay: SPR (Biacore), biotinylated human CD137 captured on streptavidin chip, peptide as analyte, 25°C
Starred links: 1 amine or outer side, 2 acyl side, 3 side chain; linkers in the order of their positions; H or OH if unused. Positions of bridges follow the written chain, without caps; N, C: chain ends. Non-standard residues stand in square brackets, D forms with d. No end group written: not given here. BCN = bicyclo[6.1.0]non-4-yn-9-ylmethyl carbonate as carbamate, click handle; TATA = O=C(CC[*:1])N1CN(C(=O)CC[*:2])CN(C(=O)CC[*:3])C1; tBuAla = CC(C)(C)C[C@H](N)C(=O)O; Nle = CCCC[C@H](N)C(=O)O; PYA = propargyl-acid
READOUT_NAME: pKd
Numbers only, as −log10 of the molar value.

Here's what some known entries look like.
BINDER	pKd
Ac-ACIEEGQYCFADK(PYA)Y[Nle]CA (linker 2-9-16 via TATA, Bicyclic peptide monomer; also called Monomer 8A) [BCY7747]	6.44
ACIEEGQYCFADPYXCA (Ac-A-CiIEEGQYCiiFADPYK(BCN)Ciii-A; Ci, Cii, Ciii cyclised on TATA, Bicyclic peptide monomer; also called Monomer 9-BCN) [BCY8097]	7.00
Ac-C[tBuAla]PE[dK](PYA)PYCFADPY[Nle]CA (linker 1-8-15 via TATA, also called Monomer 12A) [BCY8928]	7.94
ACIEEGQYCFADPYXCA (Ac-A-CiIEEGQYCiiFADPYK(PYA)Ciii-A; Ci, Cii, Ciii cyclised on TATA, Bicyclic peptide monomer; also called Monomer 9A) [BCY7748]	6.58
Ac-ACIEK(BCN)GQYCFADPY[Nle]CA (linker 2-9-16 via TATA, Bicyclic peptide monomer; also called Monomer 4-BCN) [BCY8142]	6.49
XACIEEGQYCFADPYXCA ((BCN)-A-CiIEEGQYCiiFADPY(Nle)Ciii-A; Ci, Cii, Ciii cyclised on TATA, Bicyclic peptide monomer; also called Monomer 1-BCN) [BCY8141]	7.24
Ac-ACIEEGQYCK(PYA)ADPY[Nle]CA (linker 2-9-16 via TATA, Bicyclic peptide monomer; also called Monomer 7A) [BCY7746]	6.59
Ac-ACIEEGK(PYA)YCFADPY[Nle]CA (linker 2-9-16 via TATA, Bicyclic peptide monomer; also called Monomer 6A) [BCY7745]	7.20

Below is a list of binders. For each, state its recorded pKd.
1. ACIEEGQYCFADPYXCX (Ac-A-CiIEEGQYCiiFADPY(Nle)Ciii-Dap(PYA); Ci, Cii, Ciii cyclised on TATA, Bicyclic peptide monomer; also called Monomer 2A) [BCY7741]
2. Ac-ACIEK(PYA)GQYCFADPY[Nle]CA (linker 2-9-16 via TATA, Bicyclic peptide monomer; also called Monomer 4A) [BCY7743]

[6.91, 7.00]
